# Tested on: C. tropicalis NCPF 8760
# assayName: microbe, parasite or virus in culture
# Type: cell-based
# conditionDetails: C. tropicalis NCPF 8760; shown in µM
# Description: […] The 46 peptides were serially diluted (128 to 2 μg/mL) in media down polypropylene 96-well plates. […] Plates were incubated at 37 °C for 20 h, and the optical density was determined spectrophotometrically at 600 nm. Minimum inhibition concentrations (MICs) were determined from a minimum of three biological repeats and are reported in μg/mL as well as μM. […]
Where a SMILES comes first, the peptide text is derived from it.
property: Modal MIC50 (µM)
The figure you give is taken to be in µM; do not add the unit.

Ask | Give Modal MIC50 for this entry on C. tropicalis NCPF 8760: CC[C@H](C)[C@H](NC(=O)[C@H](C)NC(=O)[C@H](CCCCN)NC(=O)[C@@H]1CCCN1C(=O)[C@@H](NC(=O)[C@H](CC(C)C)NC(=O)[C@H](CCCCN)NC(=O)[C@H](Cc1ccccc1)NC(=O)[C@H](CC(C)C)NC(=O)[C@@H](N)Cc1ccccc1)[C@@H](C)CC)C(=O)N[C@@H](CCCCN)C(=O)N[C@@H](CCCCN)C(=O)N[C@@H](CC(C)C)C(=O)N[C@H](C(=O)N[C@@H](CO)C(=O)N[C@@H](CCCCN)C(=O)N[C@@H](Cc1ccccc1)C(=O)N[C@@H](CCCCN)C(N)=O)[C@@H](C)CC [AamAP1-Lysa] (H-FLFKLIPKAIKKLISKFK-NH2)
Reply | 0.9

// provenance: paper PMC11191095
